- PROTOCOL_SUMMARY: in vivo
- CONDITION_SUMMARY: rat, brain and plasma, ip, 10 mg/kg
ASSAY_ENDPOINT: Kp

Fill in: Kp of COC(=O)C1C(O)CC2CCC1N2C (stereo not shown) is ___
~10
